- Tested on: 233499-124-R-J3-PDC complex spheroid growth;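 further: spheroids exposed to agents for seven days before reading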
- protocol: Anticancer human tumor 233499-124-R-J3-PDC patient-derived colon adenocarcinoma cell line growth inhibition [AhR]
- recorded conditions: second compound 1 µM; first compound 0.316 µM; stronger effect = lower value
Give viability, T/C for every item shown.
Answers are plain numbers, in %.

# annotated cases, reported viability, T/C shown
compound	u	viability, T/C
CC1COCCN1c1cc(-c2ccnn2C)c2ccnc(-c3ccn[nH]3)c2n1 (stereo not drawn) + Cc1cncc(-c2nc(NCCc3c[nH]c4ccccc34)c3ncn(C(C)C)c3n2)c1	%	53.5
Nc1ccccc1NC(=O)c1ccc(CNC(=O)OCc2cccnc2)cc1 + Cc1ccccc1N=Nc1ccc(NC(=O)c2ccnn2C)c(C)c1	%	117
CC(C)c1c(-c2ccccc2)nc2c(C#N)c[nH]n2c1=O + Cc1cncc(-c2nc(NCCc3c[nH]c4ccccc34)c3ncn(C(C)C)c3n2)c1	%	71.5
NS(=O)(=O)OCC1CC(n2ccc3c(NC4CCc5ccccc54)ncnc32)CC1O (stereo not drawn) + Cc1ccccc1N=Nc1ccc(NC(=O)c2ccnn2C)c(C)c1	%	58.2
CC1COCCN1c1cc(-c2ccnn2C)c2ccnc(-c3ccn[nH]3)c2n1 (stereo not drawn) + CC(CO)NC(=O)c1cc(-c2ccc(Cl)cc2)nn(-c2cnn(C)c2)c1=O	%	60.8
Nc1ccn(C2OC(CO)C(O)C2(F)F)c(=O)n1 (stereo not drawn) + Cc1ccccc1N=Nc1ccc(NC(=O)c2ccnn2C)c(C)c1	%	62.8

Below is a list of compounds. For each, state its recorded viability, T/C.
1. NS(=O)(=O)OCC1CC(n2ccc3c(NC4CCc5ccccc54)ncnc32)CC1O (stereo not drawn) + Cc1cncc(-c2nc(NCCc3c[nH]c4ccccc34)c3ncn(C(C)C)c3n2)c1
2. O=C(C=Cc1cccc(S(=O)(=O)Nc2ccccc2)c1)NO + Cc1ccccc1N=Nc1ccc(NC(=O)c2ccnn2C)c(C)c1
3. COc1ccc([C@@H](O)c2cc(-c3ncnc4cc(N5CCOCC5)ccc34)c(F)cc2Cl)nn1 + Cc1cncc(-c2nc(NCCc3c[nH]c4ccccc34)c3ncn(C(C)C)c3n2)c1
4. CC1COCCN1c1cc(C2(S(C)(=N)=O)CC2)nc(-c2ccnc3[nH]ccc23)n1 (stereo not drawn) + Cc1cncc(-c2nc(NCCc3c[nH]c4ccccc34)c3ncn(C(C)C)c3n2)c1
5. COc1cc(C2c3cc4c(cc3C(OC3OC5COC(C)OC5C(O)C3O)C3COC(=O)C23)OCO4)cc(OC)c1O (stereo not drawn) + Cc1ccccc1N=Nc1ccc(NC(=O)c2ccnn2C)c(C)c1
6. CC1COCCN1c1cc(-c2ccnn2C)c2ccnc(-c3ccn[nH]3)c2n1 (stereo not drawn) + Cc1ccccc1N=Nc1ccc(NC(=O)c2ccnn2C)c(C)c1
7. CC(C)c1c(-c2ccccc2)nc2c(C#N)c[nH]n2c1=O + Cc1ccccc1N=Nc1ccc(NC(=O)c2ccnn2C)c(C)c1

1. 83.1
2. 116
3. 65.7
4. 78.7
5. 98.7
6. 81.6
7. 98.7
